fold change (FC) overview
# Tested on: RAW264.7
# Assay protocol: Inhibition of LPS-induced iNOS expression in mouse RAW264.7 cells at 10 uM after 18 hrs by Western blot method relative to LPS
# Type: functional
// no unit string in output, number only

[
  {
    "Smiles entry": "COc1cc2cc(C(=O)c3ccc(O)cc3)oc2cc1O",
    "Target or test system": "RAW264.7",
    "Meas value": 0.18
  },
  {
    "Smiles entry": "COc1ccc(C(=O)c2cc3cc(OC)c(OC)cc3o2)cc1",
    "Target or test system": "RAW264.7",
    "Meas value": 0.65
  },
  {
    "Smiles entry": "COc1ccc(C(=O)c2cc3cc(O)c(OC)cc3o2)cc1",
    "Target or test system": "RAW264.7",
    "Meas value": 0.52
  }
]

Provide the documented fold change (FC) with RAW264.7 as the system for O=C(c1ccc(O)cc1)c1cc2cc(O)c(O)cc2o1
0.36

Provide the documented fold change (FC) with RAW264.7 as the system for COc1cc2oc(C(=O)c3ccc(O)cc3)cc2cc1O
0.26

Provide the documented fold change (FC) with RAW264.7 as the system for COc1ccc(C(=O)c2cc3cc(OC)c(O)cc3o2)cc1
0.77

Provide the documented fold change (FC) with RAW264.7 as the system for COc1cc2cc(C(=O)c3ccc(O)cc3)oc2cc1OC
0.46

Provide the documented fold change (FC) with RAW264.7 as the system for COc1ccc(C(=O)c2cc3cc(O)c(O)cc3o2)cc1
0.19

====

# Assay protocol: Cytotoxicity against mouse RAW264.7 cells assessed as cell viability at 1 uM after 24 hrs by MTS assay relative to control
# Type: cell-based
# Condition summary: read-out: Activity
viability at 24 h, 1 µM overview
# unit: % | format: bare number

// below: answered molecules
[
  {
    "Molecule": "COc1cc2cc(C(=O)c3ccc(O)cc3)oc2cc1O",
    "viability at 24 h, 1 µM (%)": 98.1
  },
  {
    "Molecule": "COc1ccc(C(=O)c2cc3cc(OC)c(O)cc3o2)cc1",
    "viability at 24 h, 1 µM (%)": 93.2
  },
  {
    "Molecule": "COc1ccc(C(=O)c2cc3cc(O)c(OC)cc3o2)cc1",
    "viability at 24 h, 1 µM (%)": 98.1
  },
  {
    "Molecule": "COc1ccc(C(=O)c2cc3cc(OC)c(OC)cc3o2)cc1",
    "viability at 24 h, 1 µM (%)": 105
  }
]

# query: viability at 24 h, 1 µM of entry CNC(=N)NCCC[C@H](N)C(=O)O [TILARGININE]
98.6

# query: viability at 24 h, 1 µM of entry COc1cc2cc(C(=O)c3ccc(O)cc3)oc2cc1OC
106

====

# Assay protocol: Cytotoxicity against mouse RAW264.7 cells assessed as cell viability at 10 uM after 24 hrs by MTS assay relative to control
# Assay type: cell-based
# Condition summary: read-out: Activity
viability at 24 h, 10 µM overview
# unit: % | format: bare number

[
  {
    "Smiles entry": "COc1cc2cc(C(=O)c3ccc(O)cc3)oc2cc1OC",
    "Unit abbreviation": "%",
    "viability at 24 h, 10 µM": 102
  },
  {
    "Smiles entry": "COc1ccc(C(=O)c2cc3cc(O)c(OC)cc3o2)cc1",
    "Unit abbreviation": "%",
    "viability at 24 h, 10 µM": 100
  }
]

# query: viability at 24 h, 10 µM of entry COc1cc2cc(C(=O)c3ccc(O)cc3)oc2cc1O
95.9

# query: viability at 24 h, 10 µM of entry CNC(=N)NCCC[C@H](N)C(=O)O
97.6

# query: viability at 24 h, 10 µM of entry COc1ccc(C(=O)c2cc3cc(OC)c(OC)cc3o2)cc1
98.6

# query: viability at 24 h, 10 µM of entry O=C(c1ccc(O)cc1)c1cc2cc(O)c(O)cc2o1
100
